# credit: PubChem BioAssay AID588342

target: Luciferin 4-monooxygenase (Photinus pyralis) (UniProt P08659); test: qHTS profiling assay for firefly luciferase inhibitor/activator using purifed enzyme and Km concentrations of substrates (counterscreen for miR-21 project); conditions: purified FLuc, luminescence inhibition; series mostly up to 57.5 µM; note: nearly all actives have a fitted effect of over 55% in size
Sequence (P08659 whole entry, looked up): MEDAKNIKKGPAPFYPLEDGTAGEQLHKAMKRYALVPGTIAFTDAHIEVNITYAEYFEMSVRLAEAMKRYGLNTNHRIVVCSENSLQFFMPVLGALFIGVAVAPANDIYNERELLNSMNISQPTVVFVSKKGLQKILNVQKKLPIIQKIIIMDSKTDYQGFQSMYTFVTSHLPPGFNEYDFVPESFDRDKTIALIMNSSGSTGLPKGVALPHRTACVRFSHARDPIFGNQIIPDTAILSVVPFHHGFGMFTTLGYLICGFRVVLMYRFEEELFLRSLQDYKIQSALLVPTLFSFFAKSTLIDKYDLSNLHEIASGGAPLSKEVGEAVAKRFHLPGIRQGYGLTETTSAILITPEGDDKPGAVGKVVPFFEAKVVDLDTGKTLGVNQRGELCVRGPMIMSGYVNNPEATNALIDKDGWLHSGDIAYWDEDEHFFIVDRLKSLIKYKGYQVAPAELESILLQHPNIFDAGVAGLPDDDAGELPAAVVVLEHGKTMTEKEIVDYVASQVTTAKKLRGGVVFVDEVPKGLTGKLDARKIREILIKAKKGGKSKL
Hit rate of the full screen: of about 360,000 compounds, about 25,000 (6.9%) were called active. Inconclusive results (about 9%) are left out. Calls come from the whole dose curve; as a rule, active = well fitted inhibition curve with a large enough effect; inconclusive = small, poorly fitted or top-dose-only effect; inactive = flat fitted curve, though single readings scatter. The list comes from a sample in which actives are over-represented; it also holds close analogues and randomly drawn compounds.
Give one outcome, nothing more. List: T (active), F (inactive)

Use these answered entries as a reference point.
CN(CC(=O)Nc1ccc(F)c(F)c1F)C(=O)Cn1cnc2c1c(=O)n(C)c(=O)n2C    F
COc1ccccc1-c1cc(C(F)(F)F)nc(S(=O)(=O)CCCC(=O)Nc2ccc(F)cc2F)n1    F
CN(C)c1ccc(/C=N/NC(=O)c2ccc(Cn3cc(Br)cn3)o2)cc1    T
O=C(Nc1ccc(Br)c2cccnc12)c1ccc(Cn2cc([N+](=O)[O-])cn2)o1    F
CC1CN(C(=O)N2CCC(C(=O)NCc3ccco3)CC2)c2cc(Cl)ccc2O1 (centres undefined)    F

Request: Status in this test for `O=C(CSc1oc(-c2ccc(F)cc2)nc1S(=O)(=O)c1ccc(Br)cc1)NC1CCCCC1` ?
Response: F

Request: Status in this test for `CS(=O)(=O)Nc1cccc(-c2cn3ccccc3n2)c1` ?
Response: T

Request: Status in this test for `O=C(N/N=C/c1ccc2c(c1)OCO2)c1ccc(Cn2cc([N+](=O)[O-])cn2)o1` ?
Response: T

Request: Status in this test for `O=C(Nc1ccc2sc3ccccc3c(=O)c2c1)c1ccccc1Cl` ?
Response: T
